Target: T1, hROR2ECD-his (human, UniProt Q01974 34-403)
T1 construct: extracellular domain; bought, Acrobiosystems R02-H52E5; also called huROR2-his
T1 sequence (Q01974 34-403): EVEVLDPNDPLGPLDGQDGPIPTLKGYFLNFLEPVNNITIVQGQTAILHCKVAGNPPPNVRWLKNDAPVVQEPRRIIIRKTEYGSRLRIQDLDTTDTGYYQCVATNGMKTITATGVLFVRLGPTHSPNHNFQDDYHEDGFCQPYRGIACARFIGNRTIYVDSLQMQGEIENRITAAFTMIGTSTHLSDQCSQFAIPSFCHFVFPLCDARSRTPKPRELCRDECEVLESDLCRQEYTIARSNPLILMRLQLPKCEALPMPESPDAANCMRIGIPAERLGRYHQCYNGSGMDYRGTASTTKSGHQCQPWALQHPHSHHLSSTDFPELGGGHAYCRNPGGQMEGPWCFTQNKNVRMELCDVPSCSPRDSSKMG
Experiment: ELISA, plate coated with hROR2 ECD-his
measurement_kind: binding result

Illustrative cases are given below, each with its answer.
# binder, binding result
rows = [
    ("PR001370 (antibody, V domains shown, fully human IgG1, kappa) VH: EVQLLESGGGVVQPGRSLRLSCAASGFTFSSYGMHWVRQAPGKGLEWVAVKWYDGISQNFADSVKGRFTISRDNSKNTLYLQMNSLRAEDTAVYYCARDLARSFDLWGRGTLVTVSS VL: DIVMTQSPSTLSASVGDRVTITCRASQSINNWLAWYQQKPGKAPKLLIYKASSLESGVPSRFSGSGSGTEFTLTISSLQPDDFATYYCQQYNSYSPMYTFGQGTKVDIKR", "no binding"),
    ("PR001356 (antibody, human IgG1, kappa, V domains shown, fully human IgG1, kappa; also called anti-ROR1 1015M2-E6 hIgG1; PR001356(WT)) VH: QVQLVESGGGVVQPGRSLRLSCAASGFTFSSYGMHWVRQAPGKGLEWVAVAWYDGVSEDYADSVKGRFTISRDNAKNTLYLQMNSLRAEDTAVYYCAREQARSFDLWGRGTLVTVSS VL: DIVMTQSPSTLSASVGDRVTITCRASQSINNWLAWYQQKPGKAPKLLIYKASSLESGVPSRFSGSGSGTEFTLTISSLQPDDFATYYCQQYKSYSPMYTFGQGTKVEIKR", "no binding"),
    ("PR001371 (antibody, human IgG1, kappa, V domains shown, fully human IgG1, kappa) VH: QVQLVESGGGVVQPGRSLRLSCAASGFTFSSYGMLWVRQAPGKGLEWVAVAWYDGVSEDYADSVKGRFTISRDNSMNTLSLQMNSLRAEDTAVYYCAREQARSFDLWGRGTLVTVSS VL: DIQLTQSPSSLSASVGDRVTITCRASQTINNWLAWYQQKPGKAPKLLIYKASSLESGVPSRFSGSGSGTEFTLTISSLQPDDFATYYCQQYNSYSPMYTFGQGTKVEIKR", "no binding"),
    ("PR001358 (antibody, human IgG1, kappa, V domains shown, fully human IgG1, kappa) VH: QVQLVQSGGGVVQPGRSLRLSCAASGFTFSSYAMHWVRQAPGKGLEWVAIMWYDGSNTDYADSVKGRFTISRDTSKNTLFLQMNSLRAEDTAVYYCAREQARSFDLWGRGTLVTVSS VL: DIVMTQSPSTLSASVGDRVTITCRASQSINSWLAWYQQKPGKAPKLLIYKASNLESGVPSRFSGSGSGTEFTLTISSLQPDDFATYYCQQYKSYSPMYTFGQGTKVDIKR", "no binding"),
]

Next binder, please.
INPUT: Would you kindly share the measured binding result for PR001357 (antibody, human IgG1, kappa, V domains shown, fully human IgG1, kappa) VH: QVQLVQSGGGVVQPGRSLRLSCAASGFTFSSYGMHWVRQAPGKGLEWVAVIWYDGSNKDYADSVKGRFTISRDTSKNTLYLQMNSLRAEDTAVYYCAREQARSFDLWGRGTLVTVSS VL: DIQLTQSPYSLSASVGDRVTITCRASQTINNWLAWYQQKPGKAPKLLIYKASSLESGVPSRFSGSGSGTEFTLTISSLQPDDFATYYCQQYKLYSPMYTFGQGTKVEIKR ?
OUTPUT: no binding
